- Tested on: SW480
- PROCEDURE TEXT: TCF/Wnt firefly luciferase reporter signal relative to plate median (fraction of plate median); higher = higher Wnt reporter signal
- CONDITION INFO: 5 µM; treatment time 24 h; reporter: 7TFP
Threshold check on TCF/Wnt firefly luciferase reporter signal: at or above 1 gives MET, strictly below gives NOT MET.

{"columns": ["MOLECULE", "TARGET", "CAT"],
 "data": [
  ["C/C=C/C=C/[C@@H]1O[C@](O)([C@H](CC)C(=O)NC/C=C/C=C(\\C)[C@@H](OC)[C@@H](C)[C@@H]2O[C@H](/C=C/C=C/C=C(\\C)C(=O)c3c(O)ccn(C)c3=O)[C@H](O)[C@@H]2O)C[C@H](O)C1(C)C (single isomer, unassigned; isomere) [Heneicomycin (Isomere)]", "SW480", "MET"],
  ["CN[C@H](CC(=O)O)C(=O)O", "SW480", "NOT MET"],
  ["NC(=O)CC[C@H](N)C(=O)O", "SW480", "MET"],
  ["Oc1ccc2c(c1)O[C@H](c1ccc(O)c(O)c1)[C@@H](O)C2", "SW480", "NOT MET"],
  ["COc1ccc(C(=O)Oc2ccc(/C=N/NC(N)=O)cc2)cc1", "SW480", "MET"]
]}

Check if TCF/Wnt firefly luciferase reporter signal >= 1 (inclusive). Item: `CC1=C(/C=C/C(C)=C/C=C/C(C)=C/C=C/C=C(C)/C=C/C=C(C)/C=C/C2=C(C)C(=O)[C@@H](O)CC2(C)C)C(C)(C)C[C@H](O)C1=O` NOT MET

Would you kindly repeat that for CCOC(=O)C1=C(COCCN)NC(C)=C(C(=O)OC)C1c1ccccc1Cl (configuration not stated) ? MET

Quick one: `Nc1nc2[nH]cnc2c(=S)[nH]1` NOT MET

###

- System: DLD1
- PROCEDURE TEXT: cell viability (CellTiter-Glo) relative to plate median (fraction of plate median); higher = more viable cells
- CONDITION INFO: 5 µM; treatment time 24 h; reporter: 7TFP
QUANTITY NAME: cell viability

Go through the items and report each one's cell viability.
1. CC(=O)O[C@@H]1c2c(ccc3ccc(=O)oc23)OC(C)(C)[C@@H]1OC(=O)CC(C)C
2. Cc1cc2cc3c(C)cc(=O)oc3c(C)c2o1
3. CC(C)c1c(C(=O)Nc2ccccc2)c(-c2ccccc2)c(-c2ccc(F)cc2)n1CC[C@@H](O)C[C@@H](O)CC(=O)O
4. CO/N=C(\C(=O)N[C@@H]1C(=O)N2C(C(=O)O)=C(CSc3nc(=O)c(O)nn3C)CS[C@H]12)c1csc(N)n1

[0.979, 1.07, 0.992, 1.06]

###

- Test system: HCT116
- PROCEDURE TEXT: cell viability (CellTiter-Glo) relative to plate median (fraction of plate median); higher = more viable cells
- CONDITION INFO: 5 µM; treatment time 24 h; reporter: TCF4/Wnt
The label is rule met for cell viability below 1 and rule not met for cell viability equal to or exceeding 1.

Study these solved cases before continuing.
{"columns": ["COMPOUND", "CAT"],
 "data": [
  ["CC(C(=O)O)c1ccc(N2Cc3ccccc3C2=O)cc1 (centres undefined)", "rule not met"],
  ["CC1=C(CCC(=O)O)c2cc3nc(cc4[nH]c(cc5[nH]c(cc1n2)c(C)c5C(C)O)c(C)c4C(C)O)C(C)=C3CCC(=O)O (centres undefined)", "rule met"],
  ["C[C@](N)(Cc1ccc(O)cc1)C(=O)O", "rule not met"],
  ["C#CCN(C)Cc1ccccc1", "rule not met"],
  ["CN1CCCN=C1COC(=O)C(O)(c1ccccc1)C1CCCCC1 (centres undefined)", "rule not met"]
]}

Lab log: compare recorded cell viability with 1; is it strictly lower for CCCCOc1cc(CC2CNC(=O)N2)ccc1OC (centres undefined) ? rule met

Quick one: `CC[C@H]1OC(=O)[C@H](C)[C@@H](O[C@H]2C[C@@](C)(OC)[C@@H](O)[C@H](C)O2)[C@H](C)[C@@H](O[C@@H]2O[C@H](C)C[C@H](N(C)C)[C@H]2O)[C@](C)(O)C[C@@H](C)CN(C)[C@H](C)[C@@H](O)[C@]1(C)O` rule met

# repeat for `COc1ccc(-c2coc3cc(O)cc(O)c3c2=O)cc1` rule met

Repeat for the following compound: `CCn1cc(C(=O)O)c(=O)c2cnc(N3CCNCC3)nc21` rule met

Same again, this time with `COC(=O)[C@H](c1ccccc1Cl)N1CCc2sccc2C1` rule met

What about this compound? `O=C(O)c1nc2cc(Cl)c(Cl)cc2nc1O` rule met

Thanks! And CC(Oc1ccccc1)C(=O)N[C@@H]1C(=O)N2[C@@H]1SC(C)(C)[C@@H]2C(=O)O (some centres undefined) ? rule met

###

- Tested on: SW480
- PROCEDURE TEXT: cell viability (CellTiter-Glo) relative to plate median (fraction of plate median); higher = more viable cells
- CONDITION INFO: 5 µM; treatment time 24 h; reporter: 7TFP
QUANTITY NAME: cell viability
Give bare numbers.

{"columns": ["COMPOUND", "cell viability"],
 "data": [
  ["COc1cc(OC)c2c(=O)c(-c3ccc4c(c3)OCO4)coc2c1", 0.976],
  ["O=C(O[C@@H]1Cc2c(O)cc(O)cc2O[C@@H]1c1cc(O)c(O)c(O)c1-c1c([C@H]2Oc3cc(O)cc(O)c3C[C@H]2OC(=O)c2cc(O)c(O)c(O)c2)cc(O)c(O)c1O)c1cc(O)c(O)c(O)c1", 1.03]
]}

For the next question, use this compound.
Record request: cell viability value, item CC(=O)O[C@H]1C[C@@H](OC(C)=O)C(C)(C)C2CC(=O)[C@]3(C)C(CC[C@@]4(C)[C@H](c5ccoc5)OC(=O)[C@H]5O[C@]543)[C@]21C (stereo partly drawn) 1.02

###

- Tested on: SW480
- PROCEDURE TEXT: cell viability (CellTiter-Glo) relative to plate median (fraction of plate median); higher = more viable cells
- CONDITION INFO: 5 µM; treatment time 24 h; reporter: 7TFP
Consider the following compounds; for each one, report its cell viability.
One number for each entry.

# example entries with known answers
{"columns": ["COMPOUND", "TARGET", "cell viability"],
 "data": [
  ["N[C@@H](Cc1cc(I)c(Oc2ccc(O)c(I)c2)c(I)c1)C(=O)O", "SW480", 0.969],
  ["CNC[C@H](O)c1cccc(O)c1", "SW480", 0.955],
  ["O=c1oc(CO)c(CO)c2cccc(O)c12 [8-hydroxy-3,4-bis-(hydroxymethyl)-isocumarin]", "SW480", 0.967],
  ["CCn1nc(C(=O)O)c(=O)c2cc3c(cc21)OCO3", "SW480", 0.988],
  ["c1ccc2c(CC3=NCCN3)cccc2c1", "SW480", 1.09],
  ["C[C@H]1COC2=C1C(=O)C(=O)c1c2ccc2c1CCCC2(C)C", "SW480", 1.08],
  ["CC1(C)CC[C@]2(C)CC[C@]3(C)C(=CC[C@@H]4[C@@]5(C)CC[C@H](O)C(C)(C)[C@@H]5CC[C@]43C)[C@@H]2C1", "SW480", 0.994],
  ["CCCCC/C=C/CCC(=O)N[C@H]1[C@H](Oc2c3cc4cc2Oc2ccc(cc2Cl)[C@@H](O[C@@H]2O[C@H](CO)[C@@H](O)[C@H](O)[C@H]2NC(C)=O)[C@@H]2NC(=O)[C@H](NC(=O)[C@@H]4NC(=O)[C@H]4NC(=O)C(Cc5ccc(c(Cl)c5)O3)NC(=O)[C@H](N)c3ccc(O)c(c3)Oc3cc(O)cc4c3)c3ccc(O)c(c3)-c3c(OC4O[C@H](CO)[C@@H](O)[C@H](O)[C@@H]4O)cc(O)cc3[C@@H](C(=O)O)NC2=O)O[C@H](CO)[C@@H](O)[C@@H]1O (stereo not given in full) [TEICOPLANIN [A(2-1) shown]]", "SW480", 1.02],
  ["CN1CCC(=C2c3ccccc3CCc3sccc32)CC1", "SW480", 1.1],
  ["CO[C@@H]1[C@@H](OC(N)=O)[C@@H](O)[C@H](Oc2ccc3c(O)c(NC(=O)c4ccc(O)c(CC=C(C)C)c4)c(=O)oc3c2C)OC1(C)C", "SW480", 1]
]}

Below are some compounds; for each one, tell me its cell viability.
1. COc1cc(OC)c2c(OC)c(-c3ccc4c(c3)OCO4)c(=O)oc2c1
2. C=C1c2c(Cl)ccc(O)c2C(=O)C2=C(O)[C@]3(O)C(=O)C(C(N)=O)=C(O)[C@@H](N(C)C)[C@@H]3[C@@H](O)[C@H]12.O=C(O)c1cc(S(=O)(=O)O)ccc1O
3. O=C(N[C@H](CO)[C@H](O)c1ccc([N+](=O)[O-])cc1)C(Cl)Cl
4. CCN(CC)CCOc1ccc2c(c1)C(=O)c1cc(OCCN(CC)CC)ccc1-2
5. C[C@@H]1C/C=C2\SC[C@@H](NC(=O)c3coc(n3)C[C@H](O)C[C@H](O)/C=C/C=C/CNC2=O)C(=O)O1

[1.01, 1, 1.04, 0.998, 1.01]

Sourced from the supplement of paper PMC6522484
